System: 565726-208-R1-J5-PDC complex spheroids, growth inhibition
Test: Anticancer human tumor 565726-208-R1-J5-PDC patient-derived pancreatic adenocarcinoma cell line growth inhibition [RAS]
Settings: curve of first compound; second compound 0.1 µM
Source text: RAS pathway inhibitors in Combinations in Complex Spheroids A high-throughput screen of multi-cell type tumor spheroids was designed to identify active combinations of RAS pathway inhibitors and targeted small molecules. Complex spheroids include a stromal component modeled by human endothelial cells (HUVEC) and fibroblasts modeled by human mesenchymal stem cells (MSCs). […] Compounds. […] If the clinical Cmax for an agent had not been determined, the highest concentration tested was 10 microM. […]
pIC50: −log10 of the molar value.
Test Readout: pIC50

Reference set (3 entries):
Compound	pIC50
NC1c2ccccc2OC12CCN(c1cnc3c(N4CCCc5ncccc54)n[nH]c3n1)CC2 (stereo unspecified) + C#Cc1c(F)ccc2cc(O)cc(-c3ncc4c(N5CC6CCC(C5)N6)nc(OCC56CCCN5CC(F)C6)nc4c3F)c12	< 5.00
CC(Nc1ccc2c(c1)OCCn1cc(N3C(=O)OCC3C(F)F)nc1-2)C(N)=O (stereo unspecified) + C#Cc1c(F)ccc2cc(O)cc(-c3ncc4c(N5CC6CCC(C5)N6)nc(OCC56CCCN5CC(F)C6)nc4c3F)c12	< 5.00
CC(=O)OC12COC1CC(O)C1(C)C(=O)C(O)C3=C(C)C(OC(=O)C(O)C(NC(=O)OC(C)(C)C)c4ccccc4)CC(O)(C(OC(=O)c4ccccc4)C21)C3(C)C (stereo unspecified) + C#Cc1c(F)ccc2cc(O)cc(-c3ncc4c(N5CC6CCC(C5)N6)nc(OCC56CCCN5CC(F)C6)nc4c3F)c12	> 7.50

I'd like to know its pIC50. The compound in question is CCN1CCN(Cc2ccc(Nc3ncc(F)c(-c4cc(F)c5nc(C)n(C(C)C)c5c4)n3)nc2)CC1 + C=CC(=O)N1CCN(c2nc(OCC3CCCN3C)nc3c(F)c(-c4nc(N)cc(C)c4C(F)(F)F)c(Cl)cc23)C(C)C1
< 6.00

I'd like to know its pIC50. The compound in question is C[C@@H](NC(=O)c1ncnc(N)c1Cl)c1ncc(C(=O)Nc2cc(C(F)(F)F)c(Cl)cn2)s1 + C=CC(=O)N1CCN(c2nc(OCC3CCCN3C)nc3c(F)c(-c4nc(N)cc(C)c4C(F)(F)F)c(Cl)cc23)C(C)C1
< 5.00

I'd like to know its pIC50. The compound in question is CC(Nc1ccc2c(c1)OCCn1cc(N3C(=O)OCC3C(F)F)nc1-2)C(N)=O (stereo unspecified) + C=CC(=O)N1CCN(c2nc(OCC3CCCN3C)nc3c(F)c(-c4nc(N)cc(C)c4C(F)(F)F)c(Cl)cc23)C(C)C1
< 5.00

----------
Overview of reported viability, T/C across a group of molecules:
Tested on: 565726-208-R1-J5-PDC complex spheroids, growth inhibition
Assay: Anticancer human tumor 565726-208-R1-J5-PDC cell line growth inhibition [RAS];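 note: spheroids exposed to compounds for seven days before readout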;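 for viability, T/C: 100% = DMSO vehicle control viability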
Details: second compound 0.00316 µM; first compound 0.00316 µM; stronger effect = lower value
Your answer should be a plain number; it is taken to be in %.

Reference set (2 entries):
Molecule	Test Readout	Reported
Nc1ccn(C2OC(CO)C(O)C2(F)F)c(=O)n1 (stereo not drawn) + C=CC(=O)N1CCN(c2nc(OCC3CCCN3C)nc3c(F)c(-c4nc(N)cc(C)c4C(F)(F)F)c(Cl)cc23)C(C)C1	viability, T/C	89.3
CC(C)n1nc(-c2ccc3oc(N)nc3c2)c2c(N)ncnc21 + C=CC(=O)N1CCN(c2nc(OCC3CCCN3C)nc3c(F)c(-c4nc(N)cc(C)c4C(F)(F)F)c(Cl)cc23)C(C)C1	viability, T/C	70.2

I'd like to know its viability, T/C. The molecule in question is CCN1CCN(Cc2ccc(Nc3ncc(F)c(-c4cc(F)c5nc(C)n(C(C)C)c5c4)n3)nc2)CC1 + C=CC(=O)N1CCN(c2nc(OCC3CCCN3C)nc3c(F)c(-c4nc(N)cc(C)c4C(F)(F)F)c(Cl)cc23)C(C)C1
92.8

Entry source: PubChem BioAssay AID2060899
